- Experiment notes: Viability qHTS for spleen associated tyrosine kinase inhibitor (SYKi) naive MV4-11 cells (AID 1963823); note: nearly all actives have a fitted effect of over 40% in size
- Assay context: MV4-11 AML viability, CellTiter-Glo luminescence, 72 h; series mostly up to 45 µM
Inconclusive results are not listed. The source made the active and inactive calls. Calls come from the whole dose curve; as a rule, active = well fitted cell-killing curve with a large enough effect; inconclusive = small, poorly fitted or top-dose-only effect, or effect the other way; inactive = no such curve, though single readings can be large or run the other way.
Outcomes: active, inactive

Compound	Discrete label
CNC(=O)c1ccc2cc([C@@]3(O)CCn4cncc43)ccc2c1	inactive
N#Cc1ccc(Nc2nc(-c3ccc(O)cc3O)cs2)cc1C(F)(F)F	active
CC(=O)O[C@H]1C[C@@H](O)C(C)(C)C2C[C@@H](OC(C)=O)[C@@]3(C)C4=CCC(C(CO)CC(O)C5OC5(C)C)[C@]4(C)CCC3[C@]21C (stereo partly specified)	inactive
COc1cc([C@H]2OC[C@]3(OC(C)=O)[C@@H](c4ccc(O[C@@H]5O[C@H](CO)[C@@H](O)[C@H](O)[C@H]5O)c(OC)c4)OC[C@H]23)ccc1O	inactive
C[C@@H]1O[C@@H](OC[C@H]2O[C@@H](OC(CCCCc3ccc(O)cc3)CCc3ccc(O)cc3)[C@H](O)[C@@H](O)[C@@H]2O)[C@H](O)[C@H](O)[C@H]1O (stereo partly specified)	inactive
CC1CCC2(NC1)OC1C(O)C3C4CCC5CC(O[C@@H]6O[C@H](CO)[C@@H](O)[C@H](O)[C@H]6O[C@@H]6O[C@@H](C)[C@H](O)[C@@H](O)[C@H]6O)CCC5(C)C4CCC3(C)C1C2C (stereo partly specified)	inactive
